assay: shake flask on a mixture of 185; loss from the water phase only; LC-Orbitrap peak areas; settings: room
MEASURED METRIC: log partition n-undecane / HPLC water, unbuffered, traces of methanol / DMSO (log10)

MOLECULE	TEST VALUE
c1ccc2[nH]c(-c3cscn3)nc2c1	-1.167
FC(F)C(F)(F)OCC(Cn1cncn1)c1ccc(Cl)cc1Cl (stereo not shown)	0.1193
OCCN(CCO)c1ccccc1	-1.048
CCCOC(=O)c1ccc(C(=O)OCCC)nc1	0.8718
O=C1OC(=O)C2C3C=CC(C3)C12 (stereo not shown)	-1.577
CCCCCCC(O)CCCCCCCCCCC(=O)OC (stereo not shown)	-1.718
CC(C)c1cccc(O)c1	-0.7318
